Measured pKd, listed per entry.
- TESTED SYSTEM: T1, PDZRN3_1, Q9UPQ7
- T1 sequence (Q9UPQ7 244-349, limits assumed, looked up): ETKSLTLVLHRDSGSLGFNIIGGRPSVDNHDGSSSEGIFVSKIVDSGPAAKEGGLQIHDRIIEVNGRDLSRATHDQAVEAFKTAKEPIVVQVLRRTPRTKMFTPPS
- METHOD NOTES: holdup assay
- Set-up: key: below the threshold = too weak to quantify, mostly under pKd 3.1 to 4
- TEST SETTINGS: plain residues with an end cap or a label only (N-terminal biotin on a linker: ado-ado)
# respond with the number and nothing more

TACCHSETVV [TGFA, P01135]: 3.78
PPYRHRNTVV [ERBB4, Q15303]: 3.54
QMNQTLPVQV [EPHB3, P54753]: 3.51
PEYLGLDVPV [ERBB2, P04626]: 3.48

API: the following record is the query input.
[ask] Fill in pKd for record RRRESYSTTV [EVI5, O60447]
[reply] 3.83
